Test system: P-gp
procedureSummary: MDCK-MDR1 transport of BA/23-HBA with or without verapamil
details: dog, MDCK-MDR1, with verapamil 20 µM

- structure: "C=C(C)[C@@H]1CC[C@]2(C(=O)O)CC[C@]3(C)[C@H](CC[C@@H]4[C@@]5(C)CC[C@H](O)C(C)(C)[C@@H]5CC[C@]43C)[C@@H]12"
  measuredTarget: "P-gp"
  Papp B→A at 120 min, 2 µM: "6.9 ×10⁻⁶ cm/s"

---

Tested on: P-gp
procedureSummary: MDCK-MDR1 transport of BA/23-HBA with or without verapamil
details: dog, MDCK-MDR1, with verapamil 20 µM

- molecule: "C=C(C)[C@@H]1CC[C@]2(C(=O)O)CC[C@]3(C)[C@H](CC[C@@H]4[C@@]5(C)CC[C@H](O)C(C)(C)[C@@H]5CC[C@]43C)[C@@H]12 [BA, Betulinic acid]"
  Papp B→A at 120 min, 0.2 µM, ×10⁻⁶ cm/s: 62.1

---

measuredTarget: P-gp (Homo sapiens)
procedureSummary: MDCK-MDR1 transport study, inhibition of VCR transport
details: dog, MDCK-MDR1
readoutKind: Papp B→A at 120 min (×10⁻⁶ cm/s)

- compound: "CC[C@]1(O)C[C@H]2CN(CCc3c([nH]c4ccccc34)[C@@](C(=O)OC)(c3cc4c(cc3OC)N(C=O)[C@H]3[C@@](O)(C(=O)OC)[C@H](OC(C)=O)[C@]5(CC)C=CCN6CC[C@]43[C@@H]65)C2)C1 [VCR, Vincristine, reference compound]"
  recordedNumber: 3.86

---

System: P-gp
procedureSummary: MDCK-MDR1 transport of BA/23-HBA with or without verapamil
details: dog, MDCK-MDR1
readoutKind: Papp B→A at 120 min, 0.2 µM (×10⁻⁶ cm/s)

- structure: "C=C(C)[C@@H]1CC[C@]2(C(=O)O)CC[C@]3(C)[C@H](CC[C@@H]4[C@@]5(C)CC[C@H](O)C(C)(C)[C@@H]5CC[C@]43C)[C@@H]12"
  measuredTarget: "P-gp"
  outputUnit: "×10⁻⁶ cm/s"
  recordedNumber: 55.1

---

Test system: P-gp
procedureSummary: MDCK-MDR1 transport of BA/23-HBA with or without verapamil
details: dog, MDCK-MDR1, with verapamil 20 µM

- structure: "C=C(C)[C@@H]1CC[C@]2(C(=O)O)CC[C@]3(C)[C@H](CC[C@@H]4[C@@]5(C)CC[C@H](O)C(C)(C)[C@@H]5CC[C@]43C)[C@@H]12"
  Papp A→B at 120 min, 20 µM / ×10⁻⁶ cm/s: 0.26

---

measuredTarget: P-gp (Homo sapiens, UniProt P08183)
Sequence (P08183 whole entry): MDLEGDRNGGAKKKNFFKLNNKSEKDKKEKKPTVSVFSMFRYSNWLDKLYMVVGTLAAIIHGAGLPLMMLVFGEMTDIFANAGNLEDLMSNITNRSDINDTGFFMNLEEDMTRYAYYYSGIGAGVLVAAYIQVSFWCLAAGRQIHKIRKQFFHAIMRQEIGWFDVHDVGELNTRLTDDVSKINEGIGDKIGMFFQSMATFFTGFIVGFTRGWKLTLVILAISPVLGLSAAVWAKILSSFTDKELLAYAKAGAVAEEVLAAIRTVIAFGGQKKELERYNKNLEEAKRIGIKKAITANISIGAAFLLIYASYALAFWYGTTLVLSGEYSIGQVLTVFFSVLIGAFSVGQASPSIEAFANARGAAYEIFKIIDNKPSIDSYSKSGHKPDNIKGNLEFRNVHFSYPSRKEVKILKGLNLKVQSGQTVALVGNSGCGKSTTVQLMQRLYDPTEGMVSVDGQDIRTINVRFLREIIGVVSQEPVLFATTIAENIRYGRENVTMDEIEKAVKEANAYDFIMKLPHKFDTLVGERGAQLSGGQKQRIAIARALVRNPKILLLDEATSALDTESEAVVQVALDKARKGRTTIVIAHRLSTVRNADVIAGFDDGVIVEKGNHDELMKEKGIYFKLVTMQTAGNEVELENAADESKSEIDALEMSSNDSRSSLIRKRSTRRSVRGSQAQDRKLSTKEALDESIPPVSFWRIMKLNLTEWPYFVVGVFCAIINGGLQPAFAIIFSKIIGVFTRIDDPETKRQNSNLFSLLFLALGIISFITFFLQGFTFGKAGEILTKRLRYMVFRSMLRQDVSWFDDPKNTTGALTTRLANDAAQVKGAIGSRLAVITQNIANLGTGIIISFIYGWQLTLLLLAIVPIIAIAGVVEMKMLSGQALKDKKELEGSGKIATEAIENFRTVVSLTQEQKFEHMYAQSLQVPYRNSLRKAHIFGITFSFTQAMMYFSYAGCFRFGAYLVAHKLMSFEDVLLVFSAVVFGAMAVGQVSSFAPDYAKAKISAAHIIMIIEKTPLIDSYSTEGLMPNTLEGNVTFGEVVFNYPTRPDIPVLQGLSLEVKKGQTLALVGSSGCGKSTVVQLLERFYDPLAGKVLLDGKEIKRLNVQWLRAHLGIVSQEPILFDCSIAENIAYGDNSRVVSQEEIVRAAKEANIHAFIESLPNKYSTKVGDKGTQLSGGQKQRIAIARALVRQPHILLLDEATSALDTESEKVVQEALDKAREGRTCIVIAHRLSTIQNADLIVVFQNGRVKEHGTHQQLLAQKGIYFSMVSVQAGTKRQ
procedureSummary: MDCK-MDR1 transport study, inhibition of VCR transport
details: dog, MDCK-MDR1

- compound: "CC[C@]1(O)C[C@H]2CN(CCc3c([nH]c4ccccc34)[C@@](C(=O)OC)(c3cc4c(cc3OC)N(C=O)[C@H]3[C@@](O)(C(=O)OC)[C@H](OC(C)=O)[C@]5(CC)C=CCN6CC[C@]43[C@@H]65)C2)C1 [VCR, Vincristine, reference compound]"
  measuredTarget: "P-gp (Homo sapiens, UniProt P08183)"
  efflux ratio at 120 min: 10.9

---

Tested on: P-gp
procedureSummary: MDCK-MDR1 transport of BA/23-HBA with or without verapamil
details: dog, MDCK-MDR1, with verapamil 20 µM
readoutKind: Papp A→B at 120 min, 2 µM (×10⁻⁶ cm/s)

- structure: "C=C(C)[C@@H]1CC[C@]2(C(=O)O)CC[C@]3(C)[C@H](CC[C@@H]4[C@@]5(C)CC[C@H](O)C(C)(C)[C@@H]5CC[C@]43C)[C@@H]12"
  measuredTarget: "P-gp"
  outputUnit: "×10⁻⁶ cm/s"
  recordedNumber: 7.65

---

measuredTarget: P-gp (Homo sapiens)
procedureSummary: in vitro
details: dog, MDCK-MDR1
readoutKind: Papp A→B at 120 min, 5 µM (×10⁻⁶ cm/s)

- molecule: "C[C@H]1O[C@@H](O[C@H]2[C@@H](O)C[C@H](O[C@H]3[C@@H](O)C[C@H](O[C@H]4CC[C@@]5(C)[C@H](CC[C@@H]6[C@@H]5C[C@@H](O)[C@]5(C)[C@@H](C7=CC(=O)OC7)CC[C@]65O)C4)O[C@@H]3C)O[C@@H]2C)C[C@H](O)[C@@H]1O [digoxin, reference compound]"
  recordedNumber: 0.31

---

Test system: P-gp
procedureSummary: MDCK-MDR1 transport of BA/23-HBA with or without verapamil
details: dog, MDCK-MDR1
Procedure: Briefly, MDCK-MDR1 cells (1×10^5/Well) were seeded onto […] pore-size transwell inserts (Millipore, MA, United States) in 24-well plates. […] The apparent permeability values (Papp) were evaluated in all experiments according to the following equation: Papp=dQ/dt/AC0 (1) where A means the insert area and C0 represents the initial concentration. dQ/dt represents the slope of the cumulative content transported during the time course of the period studied. […]
readoutKind: Papp A→B at 120 min, 20 µM (×10⁻⁶ cm/s)

- molecule: "C=C(C)[C@@H]1CC[C@]2(C(=O)O)CC[C@]3(C)[C@H](CC[C@@H]4[C@@]5(C)CC[C@H](O)C(C)(C)[C@@H]5CC[C@]43C)[C@@H]12 [BA, Betulinic acid]"
  outputUnit: "×10⁻⁶ cm/s"
  recordedNumber: 0.72
